All values here come from ChEMBL document CHEMBL4480394.

- Target Or System: Sigma non-opioid intracellular receptor 1 (Rattus norvegicus, UniProt Q9R0C9)
- Sequence (Q9R0C9 whole entry): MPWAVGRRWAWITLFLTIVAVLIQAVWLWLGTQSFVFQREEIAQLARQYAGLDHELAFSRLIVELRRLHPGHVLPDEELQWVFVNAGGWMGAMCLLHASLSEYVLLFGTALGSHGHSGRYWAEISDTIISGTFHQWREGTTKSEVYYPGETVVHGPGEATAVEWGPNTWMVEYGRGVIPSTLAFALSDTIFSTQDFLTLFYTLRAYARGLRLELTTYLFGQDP
- Protocol Summary: Displacement of [3H](+)-pentazocine from sigma1 receptor in rat brain membranes after 120 mins by radioligand binding assay
Measurement Type: Ki (nM)
Answer format: numeric, nM implied, no suffix.

Consider the reported Ki for these compounds:
# Item Smiles, Target Or System, Ki, nM
records = [
    ("CCCCCn1c(=O)n(CCCCN2CCN(c3ccc(F)cc3)CC2)c2ccccc21", "Sigma non-opioid intracellular receptor 1 (Rattus norvegicus, UniProt Q9R0C9)", 2270),
    ("CCCCCCCCCCn1c(=O)n(CCCCN2CCN(c3ccc(F)cc3)CC2)c2ccccc21", "Sigma non-opioid intracellular receptor 1 (Rattus norvegicus, UniProt Q9R0C9)", 724),
    ("CCCn1c(=O)n(CCCCN2CCN(c3ccc(F)cc3)CC2)c2ccccc21", "Sigma non-opioid intracellular receptor 1 (Rattus norvegicus, UniProt Q9R0C9)", 752),
]

**Query** Given the entry O=c1[nH]c2ccccc2n1CCCCN1CCN(c2ccc(F)cc2)CC1 , what Ki was observed with Sigma non-opioid intracellular receptor 1 (Rattus norvegicus, UniProt Q9R0C9)?
**Result** 144

**Query** Would you mind doing CCCn1c(=O)n(CCCCN2CCN(c3ccc(F)cc3)CC2)c2ccc(C(C)=O)cc21 as well?
**Result** 273

**Query** For CCCCCn1c(=O)n(CCCCN2CCN(c3ccc(F)cc3)CC2)c2ccc(C(C)=O)cc21 then?
**Result** 299

====

The compounds listed here are annotated with their pKi.
- Protocol Summary: Displacement of [3H]nisoxetine from norepinephrine transporter in rat cerebral cortex membranes after 120 mins by radioligand binding assay
- Type: cell membranes, Membrane
pKi: −log10 of the molar value.

**Query** Using the record for CCCCCn1c(=O)n(CCCCN2CCN(c3ccc(F)cc3)CC2)c2ccccc21 , report its pKi.
**Result** < 5.00

**Query** Repeat with CCCn1c(=O)n(CCCCN2CCN(c3ccc(F)cc3)CC2)c2ccccc21
**Result** < 5.00

====

- Target Or System: Sigma intracellular receptor 2 (Rattus norvegicus)
- Sequence (Q5U3Y7 whole entry): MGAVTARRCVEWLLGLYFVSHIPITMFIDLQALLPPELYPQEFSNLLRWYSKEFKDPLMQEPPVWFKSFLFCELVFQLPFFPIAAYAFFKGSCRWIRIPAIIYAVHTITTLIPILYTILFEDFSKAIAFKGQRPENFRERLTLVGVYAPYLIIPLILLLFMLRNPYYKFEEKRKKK
- Protocol Summary: Displacement of [3H]-DTG from sigma2 receptor in rat brain membranes after 120 mins in presence of (+)-pentazocine by radioligand binding assay
Measurement Type: pKi
Worth noting: pKi values are minus log10 of concentrations stated in mol/L.

# example entries with known answers
# Item Smiles, Reported Measurement
data = [
    ("O=c1[nH]c2ccccc2n1CCCCN1CCN(c2ccc(F)cc2)CC1", 7.74),
    ("CCCn1c(=O)n(CCCCN2CCN(c3ccc(F)cc3)CC2)c2ccccc21", 9.18),
    ("CCCCCn1c(=O)n(CCCCN2CCN(c3ccc(F)cc3)CC2)c2ccccc21", 8.37),
    ("CCCCCn1c(=O)n(CCCCN2CCN(c3ccc(F)cc3)CC2)c2ccc(C(C)=O)cc21", 8.67),
    ("CCCCCCCCCCn1c(=O)n(CCCCN2CCN(c3ccc(F)cc3)CC2)c2ccccc21", 8.34),
]

**Query** Consider the compound shown here: CCCn1c(=O)n(CCCCN2CCN(c3ccc(F)cc3)CC2)c2ccc(C(C)=O)cc21 What is its recorded pKi?
**Result** 8.74

**Query** What do we get for Cn1c(=O)n(CCCCN2CCN(c3ccc(F)cc3)CC2)c2ccccc21 ?
**Result** 8.69

**Query** Lookup CC(=O)c1ccc2c(c1)n(C)c(=O)n2CCCCN1CCN(c2ccc(F)cc2)CC1
**Result** 8.12

**Query** Another compound to look at: CC(=O)c1ccc2c(c1)[nH]c(=O)n2CCCCN1CCN(c2ccc(F)cc2)CC1
**Result** 7.55

**Query** // repeat for CCCCCCCCCCn1c(=O)n(CCCCN2CCN(c3ccc(F)cc3)CC2)c2ccc(C(C)=O)cc21 and report
**Result** 7.49

====

- Species: Rattus norvegicus
- Protocol Summary: Selectivity ratio of Ki for sigma1 receptor in rat brain membranes to Ki for sigma2 receptor in rat brain membranes
- Assay type: cell membranes
# Criterion met = Ratio Ki below 200 (exclusive); Criterion not met = Ratio Ki at/above 200

# Item Smiles, Group Label
records = [
    ("CCCn1c(=O)n(CCCCN2CCN(c3ccc(F)cc3)CC2)c2ccc(C(C)=O)cc21", "Criterion met"),
    ("CC(=O)c1ccc2c(c1)[nH]c(=O)n2CCCCN1CCN(c2ccc(F)cc2)CC1", "Criterion met"),
    ("CCCCCCCCCCn1c(=O)n(CCCCN2CCN(c3ccc(F)cc3)CC2)c2ccccc21", "Criterion met"),
    ("CCCCCn1c(=O)n(CCCCN2CCN(c3ccc(F)cc3)CC2)c2ccccc21", "Criterion not met"),
    ("CC(=O)c1ccc2c(c1)n(C)c(=O)n2CCCCN1CCN(c2ccc(F)cc2)CC1", "Criterion met"),
    ("CCCCCn1c(=O)n(CCCCN2CCN(c3ccc(F)cc3)CC2)c2ccc(C(C)=O)cc21", "Criterion met"),
    ("CCCn1c(=O)n(CCCCN2CCN(c3ccc(F)cc3)CC2)c2ccccc21", "Criterion not met"),
]

**Query** Does CCCCCCCCCCn1c(=O)n(CCCCN2CCN(c3ccc(F)cc3)CC2)c2ccc(C(C)=O)cc21 have Ratio Ki strictly under 200?
**Result** Criterion met

====

- Target Or System: Sodium-dependent serotonin transporter (Rattus norvegicus, UniProt P31652)
- Sequence (P31652 whole entry): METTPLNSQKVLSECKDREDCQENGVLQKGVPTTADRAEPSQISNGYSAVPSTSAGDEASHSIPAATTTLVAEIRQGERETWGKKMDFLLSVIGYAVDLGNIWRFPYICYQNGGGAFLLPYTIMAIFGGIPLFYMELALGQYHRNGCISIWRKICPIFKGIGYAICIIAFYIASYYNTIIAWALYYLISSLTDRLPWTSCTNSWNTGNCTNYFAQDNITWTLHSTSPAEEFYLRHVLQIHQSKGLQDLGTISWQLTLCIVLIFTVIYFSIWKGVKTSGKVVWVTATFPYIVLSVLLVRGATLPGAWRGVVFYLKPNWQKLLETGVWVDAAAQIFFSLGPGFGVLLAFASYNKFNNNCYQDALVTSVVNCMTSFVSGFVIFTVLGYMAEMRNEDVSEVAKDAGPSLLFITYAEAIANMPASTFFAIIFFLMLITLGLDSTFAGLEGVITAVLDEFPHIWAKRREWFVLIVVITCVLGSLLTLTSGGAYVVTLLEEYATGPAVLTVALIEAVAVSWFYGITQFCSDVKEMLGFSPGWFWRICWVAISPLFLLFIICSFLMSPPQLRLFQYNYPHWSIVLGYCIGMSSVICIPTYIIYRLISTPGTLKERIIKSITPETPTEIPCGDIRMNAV
Measurement Type: Ki

**Query** What value of Ki has been reported for the following compound? CCCn1c(=O)n(CCCCN2CCN(c3ccc(F)cc3)CC2)c2ccccc21
**Result** > 1000 nM

====

- Target Or System: UniProtKB P23977
- Sequence (P23977 whole entry): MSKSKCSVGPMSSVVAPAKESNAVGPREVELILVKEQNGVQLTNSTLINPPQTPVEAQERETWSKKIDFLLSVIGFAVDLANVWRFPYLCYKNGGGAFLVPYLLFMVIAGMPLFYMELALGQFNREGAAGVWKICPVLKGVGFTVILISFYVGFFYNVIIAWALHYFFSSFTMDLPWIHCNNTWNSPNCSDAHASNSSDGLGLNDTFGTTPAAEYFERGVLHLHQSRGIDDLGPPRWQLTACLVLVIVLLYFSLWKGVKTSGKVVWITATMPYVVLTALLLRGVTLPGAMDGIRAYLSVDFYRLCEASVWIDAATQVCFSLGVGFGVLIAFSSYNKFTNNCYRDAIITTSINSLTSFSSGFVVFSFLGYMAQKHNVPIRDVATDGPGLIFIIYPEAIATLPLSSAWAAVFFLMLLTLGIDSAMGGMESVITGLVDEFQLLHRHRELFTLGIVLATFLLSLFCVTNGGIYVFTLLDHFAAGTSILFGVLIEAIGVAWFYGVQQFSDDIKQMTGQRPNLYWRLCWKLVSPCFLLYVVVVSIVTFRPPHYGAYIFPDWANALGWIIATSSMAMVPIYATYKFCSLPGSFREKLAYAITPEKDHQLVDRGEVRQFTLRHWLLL
- Protocol Summary: Displacement of [3H]WIN 35428 from dopamine transporter in rat striatal membranes after 120 mins by radioligand binding assay
- Format: cell membranes, Striatum, Membrane
pKi: −log10 of the molar value.
Measurement Type: pKi

**Query** What value of measured pKi is listed for CCCCCn1c(=O)n(CCCCN2CCN(c3ccc(F)cc3)CC2)c2ccccc21 ?
**Result** < 6.00

====

- Target Or System: Sigma non-opioid intracellular receptor 1 (Rattus norvegicus)
- Protocol Summary: Displacement of [3H](+)-pentazocine from sigma1 receptor in rat brain membranes after 120 mins by radioligand binding assay
Measurement Type: Ki (nM)
Give the value, in units of nM, as a plain number.

Recorded results for 2 compounds are shown here.
# Item Smiles, Target Or System, Ki, nM
records = [
    ("CC(=O)c1ccc2c(c1)[nH]c(=O)n2CCCCN1CCN(c2ccc(F)cc2)CC1", "Sigma non-opioid intracellular receptor 1 (Rattus norvegicus)", 166),
    ("CCCCCCCCCCn1c(=O)n(CCCCN2CCN(c3ccc(F)cc3)CC2)c2ccc(C(C)=O)cc21", "Sigma non-opioid intracellular receptor 1 (Rattus norvegicus)", 988),
]

Continue with the next compound.
**Query** Could you share which Ki value was measured for CC(=O)c1ccc2c(c1)n(C)c(=O)n2CCCCN1CCN(c2ccc(F)cc2)CC1 ?
**Result** 72.3
